Lab note: cut-off is 200 °C. Strictly less in melting point is 1.0. Exactly 200 °C or more is 0.0.

In: Confirm or reject: melting point of Cc1nc[nH]c1-c1n[nH]c(=S)n1-c1cccc(Br)c1 lies strictly below 200 °C
Out: 0.0

In: Repeat with COc1ccccc1-n1c(-c2[nH]cnc2C)n[nH]c1=S [18b]
Out: 1.0

In: Repeat with Cc1nc[nH]c1-c1n[nH]c(=S)n1-c1c(C(C)C)cccc1C(C)C [24b]
Out: 0.0

In: Repeat with Cc1ccccc1-n1c(-c2[nH]cnc2C)n[nH]c1=S [14b]
Out: 0.0

In: Repeat with Cc1nc[nH]c1-c1n[nH]c(=S)n1-c1cc(F)ccc1F [13b]
Out: 0.0
